Recorded interaction score for the following binders
- study system: T1, O13-bP
- T1 chain: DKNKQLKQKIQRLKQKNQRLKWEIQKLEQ
- protocol summary: two-hybrid library CCNG1;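 also: natural log of median RNA to DNA barcode read ratio; higher means stronger binding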
Respond using a number only.

DKIKQLKQEIQRLEQENQRLEWENQKLEQ [O11-bP] :: -1.07
DEIKQLEQKIQRLKQKNQRLKWKNQKLKQ [O12-bP] :: -0.964
DKNKQLKQENQRLEQKIQRLKWKIQKLKQ [O10-bP] :: -0.892
DKNKQLKQENQRLEQEIQRLEWEIQKLEQ [O1-bP] :: -0.754
DEIQQLEQEIQELKQEIQELEWKNQELKQ [4H72-bN] :: -0.283

Please look at the following binder next.
Need interaction score, item DKNKQLKQKIQRLKQKNQRLKWEIQKLEQ [O13-bP]
-2.25

All values here come from paper PMC10397247.
